Measured On: TYK2 (Homo sapiens)
Sequence (P29597 whole entry): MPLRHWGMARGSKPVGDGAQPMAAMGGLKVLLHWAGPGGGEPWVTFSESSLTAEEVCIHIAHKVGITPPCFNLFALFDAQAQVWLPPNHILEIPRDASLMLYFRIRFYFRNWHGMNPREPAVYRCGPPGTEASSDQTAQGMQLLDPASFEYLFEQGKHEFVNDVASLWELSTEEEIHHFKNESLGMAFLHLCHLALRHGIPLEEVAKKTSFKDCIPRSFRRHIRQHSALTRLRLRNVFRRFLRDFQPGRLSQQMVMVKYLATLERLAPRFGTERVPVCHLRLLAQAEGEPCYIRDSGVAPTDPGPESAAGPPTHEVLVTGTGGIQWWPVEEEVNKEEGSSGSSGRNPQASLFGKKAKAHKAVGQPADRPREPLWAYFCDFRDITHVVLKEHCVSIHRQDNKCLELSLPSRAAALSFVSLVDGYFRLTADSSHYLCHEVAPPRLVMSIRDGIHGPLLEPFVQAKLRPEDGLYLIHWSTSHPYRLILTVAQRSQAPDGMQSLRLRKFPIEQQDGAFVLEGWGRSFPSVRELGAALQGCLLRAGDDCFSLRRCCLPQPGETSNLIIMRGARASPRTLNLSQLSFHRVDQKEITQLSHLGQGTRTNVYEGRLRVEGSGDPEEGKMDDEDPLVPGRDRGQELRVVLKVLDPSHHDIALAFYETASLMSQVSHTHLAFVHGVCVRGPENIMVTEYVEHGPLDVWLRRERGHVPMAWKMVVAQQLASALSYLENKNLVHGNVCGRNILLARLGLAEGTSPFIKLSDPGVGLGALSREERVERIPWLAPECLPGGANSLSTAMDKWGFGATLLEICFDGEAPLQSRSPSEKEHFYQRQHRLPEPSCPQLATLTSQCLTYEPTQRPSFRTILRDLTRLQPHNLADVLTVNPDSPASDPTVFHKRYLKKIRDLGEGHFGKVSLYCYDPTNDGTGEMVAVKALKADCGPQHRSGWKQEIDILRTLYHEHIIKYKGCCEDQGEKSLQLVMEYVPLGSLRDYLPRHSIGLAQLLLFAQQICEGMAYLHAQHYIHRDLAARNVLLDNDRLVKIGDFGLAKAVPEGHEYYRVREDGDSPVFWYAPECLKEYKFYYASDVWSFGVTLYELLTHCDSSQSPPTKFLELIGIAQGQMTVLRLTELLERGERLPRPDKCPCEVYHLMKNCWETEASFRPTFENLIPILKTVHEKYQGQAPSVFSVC
Measurement Protocol: TYK2 degradation MSD assay in OCI-LY10 cells
Type: cell-based
Parameters: endogenous in cells; host or cells: EBV-B cells
Setup Conditions: 4 to 24 hours incubation, read-out: TYK2 MSD DC50 rating in OCI-LY10
Listed here: items and their measured DC50.

Worked cases, answers included:
Molecule	Experimental Value
CNc1cc(Nc2ccccc2C(=O)NCCCCCCc2ccc3c(c2)n(C)c(=O)n3C2CCC(=O)NC2=O)nn2c(C(=O)N[C@@H]3C[C@@H]3F)cnc12 (stereo partly drawn) [Example K255]	> 100 nM
CNc1cc(Nc2cccc(C3CCC(CN4CCN(c5ccc(-c6ccc7c(c6)n(C)c(=O)n7C6CCC(=O)NC6=O)cc5)CC4)CC3)c2OC)nn2c(C(=O)N[C@@H]3C[C@@H]3F)cnc12 (stereo partly drawn) [Example K621]	1 to 10 nM

Lookup: Consider the molecule CNc1cc(-c2cccc(C(=O)NCCCCCCc3cccc4c3n(C)c(=O)n4C3CCC(=O)NC3=O)c2)nn2c(C(=O)N[C@@H]3C[C@@H]3F)cnc12 (stereo partly drawn) [Example K308] and give its measured DC50.
Found: > 100 nM
